Below, each of the compounds is paired with its reported cell count value.
# ASSAY_NAME: inhibitors of TNFa-induced NFkB p65 translocation, primary screen, imaging, HUVEC, MLSMR starter and 10KST1 sets (AID 438);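 note: compound added about 3h40 before a 20 min TNFalpha stimulation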
# COND: HUVEC TNFa-induced p65 nuclear translocation; measured here: nuclei count (cytotoxicity indicator), at 2.08 µM
API doc: respond with a numeric literal and nothing else, no unit.

Answered examples (6):
COc1ccccc1OC(=O)c1ccc2nsnc2c1 : 623
FC(F)(F)c1cc(-c2ccco2)nc(-n2nnc3ccccc32)n1 : 529
Cc1ccc(SCCNS(=O)(=O)c2ccc(F)cc2)cc1 : 348
CCOC(=O)c1ccc(NC(=O)CCc2nc(-c3ccc(C)cc3)no2)cc1 : 368
CC(C)C(=O)Nc1nnc(CCc2nnc(NC(=O)C(C)C)s2)s1 : 793
Cc1cc(NS(=O)(=O)c2ccccc2)n(-c2ccccc2)n1 : 395

stdin: State its cell count for this compound: `CN(C(=O)c1ccncc1)C1CC(C)(C)N(O)C(C)(C)C1`
stdout: 344

stdin: State its cell count for this compound: `CCC(=O)/C=C1\Sc2ccc(OC)cc2N1CCO`
stdout: 626

stdin: State its cell count for this compound: `O=c1c2ccccc2sn1-c1ccc(S(=O)(=O)N2CCCCC2)cc1`
stdout: 539

stdin: State its cell count for this compound: CCC(=O)N1CCc2cc(Br)cc(S(=O)(=O)CCC(=O)NCC3CCCO3)c21 (stereo unspecified)
stdout: 628

stdin: State its cell count for this compound: `CCN(CC)C(=O)c1ccc(NS(=O)(=O)c2ccccc2)cc1`
stdout: 444
